- Assay Notes: Half-cell cyclic voltammetry of quinones, E^0 (Example 13)
- Type: physicochemical
- Study Conditions: 1 mM in 1 M sulfuric acid, pH 0, glassy carbon, 25 mV/s
- Experimental: 1 mM solutions of the quinones listed in the following table were prepared in 1 M sulfuric acid solution. The pH of the solutions was 0. Half-cell electrochemical data were recorded using a working electrode consisting of a flat 3 mm diameter disk of glassy carbon, a coiled platinum wire as a counter electrode, and a Ag/AgCl reference electrode. Cyclic voltammograms were recorded using sweep rates of 25 mV/s.
Below: a set of entries, each annotated with reported Standard Reduction Potential E^0 in Volts vs. the standard hydrogen electrode (SHE).
Lab book: enter the figure in Volts, no units written.

Please review the following examples before continuing.
Entry Smiles: O=C1c2ccc(S(=O)(=O)O)c(O)c2C(=O)c2c1ccc(S(=O)(=O)O)c2O
Recorded Measurement: 0.118
//
Entry Smiles: O=C1C(Cl)=C(S(=O)(=O)O)C(=O)c2ccccc21
Recorded Measurement: 0.368
//
Entry Smiles: O=C1c2ccccc2C(=O)c2c(O)c(S(=O)(=O)O)c(O)c(O)c21
Recorded Measurement: 0.088

# next molecule below
Give the measured Standard Reduction Potential E^0 in Volts vs. the standard hydrogen electrode (SHE) of "O=C1c2ccc(S(=O)(=O)O)cc2C(=O)c2cc(S(=O)(=O)O)ccc21" . 0.213

The values you see were collected from patent US9966622B2.
